meta.source: ChEMBL document CHEMBL1148671

Test system: Staphylococcus aureus
test-details: Antibacterial activity against Staphylococcus aureus 29213 by broth microdilution method
Assay type: functional
condition-description: ATCC29213
recorded-metric: MIC (mg/L)
Response body: numeric value in mg/L, unit text excluded.

Example results:
CC[C@H]1OC(=O)[C@H](C)C(=O)[C@H](C)[C@@H](O[C@@H]2O[C@H](C)C[C@H](N(C)C)[C@H]2O)[C@](C)(OC)C[C@@H](C)C(=O)[C@H](C)[C@@H]2[C@@H]1OC(=O)N2CCCC(C)(C)n1cnc2ncccc21 = 0.2
CC[C@H]1OC(=O)[C@H](C)C(=O)[C@H](C)[C@@H](O[C@@H]2O[C@H](C)C[C@H](N(C)C)[C@H]2O)[C@](C)(OC)C[C@@H](C)C(=O)[C@H](C)[C@@H]2[C@@H]1OC(=O)N2CCCCc1ccnc2ccccc12 = 0.1
CC[C@H]1OC(=O)[C@H](C)C(=O)[C@H](C)[C@@H](O[C@@H]2O[C@H](C)C[C@H](N(C)C)[C@H]2O)[C@](C)(OC)C[C@@H](C)C(=O)[C@H](C)[C@@H]2[C@@H]1OC(=O)N2CCCCn1cnc2cccnc21 = 0.2

Shift focus to the following entry.
Reported MIC of CC[C@H]1OC(=O)[C@H](C)C(=O)[C@H](C)[C@@H](O[C@@H]2O[C@H](C)C[C@H](N(C)C)[C@H]2O)[C@](C)(OC)C[C@@H](C)C(=O)[C@H](C)[C@@H]2[C@@H]1OC(=O)N2CCCC(C)(C)n1cnc(-c2cccnc2)c1 : 0.2
